molecular target: Carbonic anhydrase 4 (Homo sapiens, UniProt P22748)
Sequence (P22748 whole entry): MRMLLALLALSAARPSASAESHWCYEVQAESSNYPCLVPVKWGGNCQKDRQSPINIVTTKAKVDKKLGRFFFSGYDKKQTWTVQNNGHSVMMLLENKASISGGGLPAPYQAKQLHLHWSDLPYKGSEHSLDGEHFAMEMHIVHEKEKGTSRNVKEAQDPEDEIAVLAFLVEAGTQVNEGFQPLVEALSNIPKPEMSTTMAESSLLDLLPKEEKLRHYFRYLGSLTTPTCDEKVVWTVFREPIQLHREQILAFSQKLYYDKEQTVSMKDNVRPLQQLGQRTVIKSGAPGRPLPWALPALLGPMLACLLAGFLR
observation_type: pKi
Conceptually, pKi converts a concentration in mol/L into minus its log10.

pKi measured on CC[C@@H](C(N)=O)N1CCCC1=O = 5.28

----------
target: Carbonic anhydrase 14 (Homo sapiens)
Sequence (Q9ULX7 whole entry): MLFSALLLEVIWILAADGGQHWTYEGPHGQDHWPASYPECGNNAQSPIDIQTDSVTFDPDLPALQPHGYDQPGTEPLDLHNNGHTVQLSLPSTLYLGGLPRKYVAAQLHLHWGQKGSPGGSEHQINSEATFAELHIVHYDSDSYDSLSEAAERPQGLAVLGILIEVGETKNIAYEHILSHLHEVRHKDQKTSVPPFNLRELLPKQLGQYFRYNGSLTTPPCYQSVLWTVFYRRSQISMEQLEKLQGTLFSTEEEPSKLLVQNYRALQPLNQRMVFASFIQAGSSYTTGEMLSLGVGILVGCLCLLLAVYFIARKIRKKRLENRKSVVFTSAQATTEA
observation_type: Ki (nM)
Please give a number only; it is taken to be in nM.

Ki measured on CC[C@@H](C(N)=O)N1CCCC1=O = 2270

----------
molecular target: Carbonic anhydrase 9 (Homo sapiens)
observation_type: pKi
Conceptually, pKi converts a concentration in mol/L into minus its log10.

pKi measured on CC[C@@H](C(N)=O)N1CCCC1=O = 7.05

----------
observation_type: pKi
Conceptually, pKi converts a concentration in mol/L into minus its log10.

UniProtKB P35218 data for CC[C@@H](C(N)=O)N1CCCC1=O ; its pKi: 5.04

----------
target: Carbonic anhydrase 6 (Homo sapiens)
Sequence (P23280 whole entry): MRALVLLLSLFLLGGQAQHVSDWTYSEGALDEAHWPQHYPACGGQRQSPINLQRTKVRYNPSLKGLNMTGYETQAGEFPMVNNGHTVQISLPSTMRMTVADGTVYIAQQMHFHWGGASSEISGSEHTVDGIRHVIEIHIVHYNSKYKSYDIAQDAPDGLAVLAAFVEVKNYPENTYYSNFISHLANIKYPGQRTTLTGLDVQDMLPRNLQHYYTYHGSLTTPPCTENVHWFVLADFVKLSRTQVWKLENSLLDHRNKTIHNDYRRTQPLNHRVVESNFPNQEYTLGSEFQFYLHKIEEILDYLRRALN
observation_type: Ki (µM)
Please give a number only; it is taken to be in µM.

Ki measured on CC[C@@H](C(N)=O)N1CCCC1=O = 8.4

----------
biological target: Carbonic anhydrase 2 (Homo sapiens)
observation_type: pKi
Conceptually, pKi converts a concentration in mol/L into minus its log10.

pKi measured on CC[C@@H](C(N)=O)N1CCCC1=O = 5.41

----------
observation_type: pKi
Conceptually, pKi converts a concentration in mol/L into minus its log10.

Carbonic anhydrase 12 (Homo sapiens) data for CC[C@@H](C(N)=O)N1CCCC1=O ; its pKi: 7.27

----------
biological target: Carbonic anhydrase 1 (Homo sapiens, UniProt P00915)
Sequence (P00915 whole entry): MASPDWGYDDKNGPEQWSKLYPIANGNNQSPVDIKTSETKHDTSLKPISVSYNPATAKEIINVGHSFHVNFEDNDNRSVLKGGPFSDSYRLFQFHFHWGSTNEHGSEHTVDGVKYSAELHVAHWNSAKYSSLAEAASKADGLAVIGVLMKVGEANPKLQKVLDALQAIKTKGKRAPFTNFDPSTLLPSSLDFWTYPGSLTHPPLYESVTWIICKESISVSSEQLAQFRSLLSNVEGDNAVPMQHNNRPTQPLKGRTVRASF
observation_type: pKi
Conceptually, pKi converts a concentration in mol/L into minus its log10.

pKi measured on CC[C@@H](C(N)=O)N1CCCC1=O = 5.10

----------
target: UniProtKB Q8N1Q1; assay: Inhibition of human CA13 preincubated for 15 mins by phenol red staining based stopped flow CO2 hydrase assay
Sequence (Q8N1Q1 whole entry): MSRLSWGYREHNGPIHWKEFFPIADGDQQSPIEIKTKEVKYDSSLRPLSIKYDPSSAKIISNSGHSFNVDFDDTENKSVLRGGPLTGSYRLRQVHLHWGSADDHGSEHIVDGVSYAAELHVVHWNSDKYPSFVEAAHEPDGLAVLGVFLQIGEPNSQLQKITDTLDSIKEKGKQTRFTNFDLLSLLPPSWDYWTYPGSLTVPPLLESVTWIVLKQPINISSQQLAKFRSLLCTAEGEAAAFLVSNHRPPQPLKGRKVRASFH
observation_type: Ki (µM)
Please give a number only; it is taken to be in µM.

Ki measured on CC[C@@H](C(N)=O)N1CCCC1=O = 4.17
